Source listed as patent US7611713B2.

For each entry below, report its pIC50 value.
# experimental_target: B*0702 (Homo sapiens)
# procedure_text: biochemical
# Format: binding
No end group written: not given here.
One number for each entry, as −log10 of the molar value.

Reference set, count: 4
> print(dat)
            sequence.record  measured.value
1  FPHCLAFAL [Peptide 2509]            7.60
2  FPHCLAFSL [Peptide 2510]            7.13
3  FPIPSSWAF [Peptide 2506]            7.62
4  FPHCLAFSA [Peptide 2513]            5.44

# next sequence below
Requested read-out: pIC50. Entry: FPHCLAFSI [Peptide 2512]
6.17

---

# experimental_target: B*5401 (Homo sapiens, UniProt P01889, A329T/C349S/D138N/D201E/E176V/E187T/E204Q/E69G/I76V/K202T/L119W/R155S/R180L/S121T/S35A/S48A/V127L/V306I/V36M/Y140L)
# procedure_text: biochemical
# Type: binding
No end group written: not given here.
I'd appreciate it if you could supply IC50 values for the items below.

Recorded results for 3 sequences are shown here.
> print(dat)
            sequence.record  measured.value
1  FPHCLAFSA [Peptide 2513]          0.6 nM
2  FPFCLAFSY [Peptide 2511]          5.1 nM
3  FPHCLAFAL [Peptide 2509]           24 nM

// query IC50 value for entry FPHCLAFSI [Peptide 2512]
1 nM

---

# experimental_target: B*3501 (Homo sapiens, UniProt P01889, A329T/A93T/A95T/C349S/D201E/D98Y/E176V/E187L/E204Q/E69T/I218V/K202T/L119I/Q94N/R155S/R180L/S121R/S35A/S48A/T118I/V127L/V306I/V36M/Y140S/Y91F)
# procedure_text: HLA class I peptide binding assay, B*3501
No end group written: not given here.
quantity_name: pIC50
One number for each entry, as −log10 of the molar value.

> print(dat)
            sequence.record  measured.value
1  FPFCLAFSY [Peptide 2511]            8.19

Would you kindly share the measured pIC50 for FPHCLAFSA [Peptide 2513] ?
8.19

---

# experimental_target: B*5301 (Homo sapiens, UniProt P01889, A329T/A93T/A95T/C349S/D201E/D98Y/E176V/E187L/E204Q/E69T/G107R/I218V/K202T/L105A/L119I/N104I/Q94N/R106L/R155S/R180L/S101N/S121R/S35A/S48A/T118I/V127L/V306I/V36M/Y140S/Y91F)
# procedure_text: HLA class I peptide binding assay, B*5301
No end group written: not given here.
Doc: threshold 5 nM (exclusive). Items with IC50 beneath it return T; others return F.

Worked set:
> print(dat)
            sequence.record  class.label
1  FPHCLAFSL [Peptide 2510]            F
2  FPHCLAFSI [Peptide 2512]            T

Quick check: IC50 of FPFCLAFSY [Peptide 2511] under 5 nM?
T

Identify whether the sequence FPHCLAFSA [Peptide 2513] records IC50 below 5 nM.
F
